# Test system: MS2 coat protein
# ASSAY INFO: apparent Kd, MS2 coat protein; higher = weaker binding; RNA-MaP array; FMN 200 µM where present
# MEASUREMENT PARAMETERS: ligand present: flavin mononucleotide; designed as: OFF switch for flavin mononucleotide
// values below are reported apparent Kd
API: value field is a number in nM; no unit string.

query_sequence=GCGACGAUCGAGAAGGCCACUACAUGAGGAUCACCCAUGUCGUGGUGUAUUGGAGGAUAUCGAUCAGCGUCUUAUGAGGACAUG scale_unit=nM quantitative_readout=7.68

// fetch apparent Kd; item: "UGACCCAUGACAUGAGAUGACAUGAGGAUCACCCAUGUUUACAAGGAUAUGUUGAUGAAACAUCAACAGAAGGUGUAAUGGGAU" ; system: MS2 coat protein
385

// fetch apparent Kd; item: "AGUCGGAGCAGAGGAUAUUACAUGAGGAUCACCCAUGUAAAUGGAAUAAGCUGGAAACAGCAAUGUAAGAAGGCUGCUCCGACA" ; system: MS2 coat protein
540

// fetch apparent Kd; item: "GCAUGUUGGUAGGAUAUGCAGCGAAAACCGCGAGUAGAAGGAUUGACAUGAGGAUCACCCAUGUGAACCUAAGG" ; system: MS2 coat protein
59.2

// fetch apparent Kd; item: "UGAUCGAGAGAUCUUAGAUUCUGGUAGGAUAUACAAAAGUUGCGCUUUACAUGAGGAUCACCCAUGUAGAAGGACUAGAGUCUA" ; system: MS2 coat protein
8.66

// fetch apparent Kd; item: "CCUGGCUUAGGAUAUACAGGAACCGAGAACCCGGAAGUGAAACAUGAGGAUCACCCAUGUAGAAGGAAGAAAGC" ; system: MS2 coat protein
23.1

###

// values below are reported apparent Kd
# Tested on: MS2 coat protein
# ASSAY INFO: apparent Kd, MS2 coat protein; higher = weaker binding; RNA-MaP array; tryptophan 2.4 mM where present
# MEASUREMENT PARAMETERS: designed as: ON switch for tryptophan; no ligand
API: value field is a number in nM; no unit string.

For orientation, consider the following solved cases.
query_sequence=GGUUACUCUACGGCCGCCACUGUAAUGUAAAGAUUCCUGUACAUGACAUGAGGAUCACCCAUGUGCAGGACCGGGUAGUGUAACC scale_unit=nM quantitative_readout=194
query_sequence=AAUAAUAUCCUCAUGUGAGUCGUACCAUAACGAGGACCGGUACGGCCGCCACUCGAACAUGAGGAUCACCCAUGUAGGUAUGAUA scale_unit=nM quantitative_readout=85.9
query_sequence=AAAUGUACGUCGGCCGCCACUGCGCUGAAGACAGUCACAUGAGGAUCACCCAUGUACGACAAGGGUAGGACCGGGAUGUGAGGGU scale_unit=nM quantitative_readout=91.4

Tell me measured apparent Kd for "AUGGAGACCUCGGCCGCCACUCUCCAUGAGGAUCUCCCAUGUAACAUGAGGAUCACCCAUGUGCUGAGGACCGGGAGGUCCUGAA" please.
10.6

Tell me measured apparent Kd for "GGAUGGAACUCGGCCGCCACUGGUGAUCCUAAUGUACAUGAGGAUCACCCAUGUACAUGAGAAGAUAGGACCGGGAGAUAACAUG" please.
27.7

Tell me measured apparent Kd for "CUAUAAAUAGCGGCCGCCACUUACUCAUGAGGUAACAACAUGAGGAUCACCCAUGUUUGAGGAUCAAGGACCGGGCUAUUUAUAG" please.
29.8

Tell me measured apparent Kd for "GAUACUAUGAAAGUAGUAUCUACGUGUUGACGAGGACCGGUACGGCCGCCACUCGACAUGAGGAUCACCCAUGUAUAGAAUAUGU" please.
20.6

Tell me measured apparent Kd for "UGUCGGCGUAAGUUGGCAUGUCUUGCUGGUCGAGGACCGGUACGGCCGCCACUCGAUCCUUCGCACAUGAGGAUCACCCAUGUUG" please.
18.3

Tell me measured apparent Kd for "AACAUGAGGAUCACCCAUGUCCUCAUGAUUCGAGGACCGGUACGGCCGCCACUCGGUCCUCGCGAGGAGGAGUCAAAGACUCCAA" please.
178

Tell me measured apparent Kd for "ACAUGAGGAUCACCCAUGUUUGAUGUUCCUCGAGGACCGGUACGGCCGCCACUCGAACGAGUGGCGCGCGAGUGCGCACUCGCGC" please.
12.2

Tell me measured apparent Kd for "CUAUAUGGAAACAUAUAGAAGCGAAAGCAACGAGGACCGGUACGGCCGCCACUCGAAGAGUGGUGGACAUGAGGAUCACCCAUGU" please.
63.3

Tell me measured apparent Kd for "AUUCAUGGAAACAUGACAUACAUUACCGGUCGAGGACCGGUACGGCCGCCACUCGGUUGGUGGCACAUGAGGAUCACCCAUGUUA" please.
26.8

###

# Test system: MS2 coat protein
# ASSAY INFO: apparent Kd, MS2 coat protein; higher = weaker binding; RNA-MaP array
# MEASUREMENT PARAMETERS: ligand present: flavin mononucleotide; designed as: OFF switch for flavin mononucleotide
QUANTITY NAME: apparent Kd (nM)
API: value field is a number in nM; no unit string.

query_sequence=UUACAGUCAGGAUAUUGAGUCACCCACAUGAGGAUCACCCAUGUACCUCGAAAACUGGAGCAAGAAGGGACUGCUG target_or_system="MS2 coat protein" quantitative_readout=26.4
query_sequence=CUCCUGGCAGGAUAUACAUGAGGAUCACCCAUGUUCCGAGCGUCCCAAACGACACGGUGUAGAAGGGCCAAGAU target_or_system="MS2 coat protein" quantitative_readout=17.3

Tell me measured apparent Kd for "AAUAGCUAAGGAUAUACGUACUCAGAGUGAUAAAUCAAAUAACAUGAGGAUCACCCAUGUAGAAGGAAGAAAUA" please.
26.1

Tell me measured apparent Kd for "GCUAGUUCACAGAAGGCGUCCGUGGGUGGCGCCUUACAUGAGGAUCACCCAUGUCAACCGUGCGACGAGGAUAUGUCAAUCGCA" please.
21.6

Tell me measured apparent Kd for "AGAUCCUUGGUCAGGAUAUCCAAUAAAGCCGUUUGGGAGAAGGGACAUGAGGAUCACCCAUGUAAAUUGACCAC" please.
32.3

Tell me measured apparent Kd for "UAACCAAAUGGAUGACCACAUGAGGAUCACCCAUGUCGGCAACAGGAUAUUAUCAGAUGGGCUAAUAAGAAGGGUUACUCAGCC" please.
13.2

Tell me measured apparent Kd for "AACAUGAGGAUCACCCAUGUUUCAGAUCCUCUCUGGUUCAAGUAGGAUAUGUGUGAUACGGAAGUACAGAAGGACUCCGGAGCA" please.
29.5

Tell me measured apparent Kd for "CUAAUUAUCGAGAAGGAACGACGCAUCACCGAUCUAGCACACAUGAGGAUCACCCAUGUACACCGUUAGGAUAUCGCAAACCAG" please.
9.82

Tell me measured apparent Kd for "ACUACGCUAGGAUAUACGAGGAGUGCAUGGAAGCGUUUGACACAUGAGGAUCACCCAUGUAGAAGGAGCUGCAA" please.
16.1

###

# Test system: MS2 coat protein
# ASSAY INFO: apparent Kd, MS2 coat protein; higher = weaker binding; RNA-MaP array
# MEASUREMENT PARAMETERS: designed as: ON switch for tryptophan; no ligand
QUANTITY NAME: apparent Kd

For orientation, consider the following solved cases.
query_sequence=GACCACAUGAGGAUCACCCAUGUCUUGGUCCGAGGACCGGUACGGCCGCCACUCGAGAGCCGUACAAAUAAACGGAGUGCCAUCA quantity_name="apparent Kd" result="15.9 nM"
query_sequence=GUUAGUUACACGGCCGCCACUCUUUGGCUUGGCUCAAGCUCCCAACAUGAGGAUCACCCAUGUCAGAGGACCGGGUGAACAACGU quantity_name="apparent Kd" result="134 nM"
query_sequence=CGGAGUAUGACGGCCGCCACUUGCCGGGCGCAGCUGGCUGCUUGACAUGAGGAUCACCCAUGUCCAAGGACCGGGUCAUUCCUCG quantity_name="apparent Kd" result="121 nM"

With those in mind, consider the next sequence.
Tell me measured apparent Kd for "CAGUGAGAGUCGGCCGCCACUUAACGCAAGUAGCGCAACCCAAAACAUGAGGAUCACCCAUGUCGAAGGACCGGGACAAUGAGCG" please.
12.9 nM

###

# Test system: MS2 coat protein
# ASSAY INFO: apparent Kd, MS2 coat protein; higher = weaker binding; RNA-MaP array; theophylline 2 mM where present
# MEASUREMENT PARAMETERS: designed as: OFF switch for theophylline; no ligand
Everything with apparent Kd lower than 20 nM is criterion not met; everything else, including exactly 20 nM, is criterion met.

Below are worked cases with known answers.
query_sequence=UACAUGAGGAUCACCCAUGUAUGAAUGGAUACCAGAUAAAAUAAGGUCCCUUGGCAGCUAGUGAAUCGAGGGUGGGUAUCAUGUU label="criterion not met"
query_sequence=AGACAUGAGGAUCACCCAUGUAGUACGGAUACCAGAUCCAGAUGCGUCCCUUGGCAGCUGUAGUACAGCGUUACAUCGCUCAUAG label="criterion met"
query_sequence=UGGUACAUGAGGAUCACCCAUGUUCCAGAUACCAGACUCCCGGUGGUCCCUUGGCAGCUGGUGGUACAUGAGGAUCACCCAUGUG label="criterion met"
query_sequence=UUUUUUAACAUGGCGUAUCGGAAAACCGAUACCAGUACAGAAAUGUACCCUUGGCAGCGGCGUUUUACAUGAGGAUCACCCAUGU label="criterion met"
query_sequence=GUGUUUGUGUGAGAUACCAGUGAGGCCACAUGAGGAUCACCCAUGUCCCUCACUCCGGCCCACCCUUGGCAGCUCUUAUAGUAGU label="criterion not met"
query_sequence=AGCGACAUGCGUGAUACCAGCUACAUGAGGAUCACCCAUGUCAGCAGGAAACUGCUGUGUAGCCCUUGGCAGCACAGUGCAUGUC label="criterion not met"

Tell me whether apparent Kd is at least 20 nM here: "CGGUUUGUGAUGGAUACCAGCAGAGAGAAUGUUUAUCCUGACAUGAGGAUCACCCAUGUGUGCCCUUGGCAGCUGUUGUGGGCUG"
criterion met

Tell me whether apparent Kd is at least 20 nM here: "AAGAAGUUUUGAUUUUUAUGAAGUAGUGAUACCAGUCAAGAAAGAGACCCUUGGCAGCGCAACAUGAGGAUCACCCAUGUAAGAA"
criterion met

Tell me whether apparent Kd is at least 20 nM here: "AAGGGUGAGUCUCUAAUCCGUUUGACGGAUACCAGCGAGAGAUAUCGCCCUUGGCAGCCGACGACAUGAGGAUCACCCAUGUAAA"
criterion not met

Tell me whether apparent Kd is at least 20 nM here: "AGCGCAGGUCCUGAUACCAGUGACAUGAGGAUCACCCAUGUCCGAUGGGCCUGCCUCUGACACCCUUGGCAGCAGGGCUUGUGCU"
criterion met

Tell me whether apparent Kd is at least 20 nM here: "GAGGGUGGGUCUCUAAUCCGUUUGACGGAUACCAGCGAGAGAUAUCGCCCUUGGCAGCCGACGACAUGAGGAUCACCCAUGUAAA"
criterion not met

Tell me whether apparent Kd is at least 20 nM here: "ACAUGAGGAUCACCCAUGUUCCUCUUUGAUACCAGUGAGUUGUUUCGCCCUUGGCAGCGAGUGUUUGUUUUUUUGUUUUGUUUGG"
criterion met

Tell me whether apparent Kd is at least 20 nM here: "AUAAUGGGUAUCGGAUUAUCAUGAUAUGAUACCAGAUACUUAGAUAUCCCUUGGCAGCAUGAGGACAUGAGGAUCACCCAUGUAU"
criterion met

Tell me whether apparent Kd is at least 20 nM here: "UCCACAUGAGGAUCACCCAUGUAAUCAGAUACCAGUGACGAAAGUCACCCUUGGCAGCUGAUUACUUUAGUUCGAGGGUGUUUGA"
criterion met

Tell me whether apparent Kd is at least 20 nM here: "CAAUAAGUAACUGAUACCAGUGUACUGACAUGAGGAUCACCCAUGUUGGGUUUUGUUGUACACCCUUGGCAGCAGAAUCUUAUUG"
criterion met

Tell me whether apparent Kd is at least 20 nM here: "AGCGACAUGCGUGAUACCAGCUACAUGAGGAUCACCCAUGUCAGUAGGAAACUGCUGUGUAGCCCUUGGCAGCACAGUGCAUGUC"
criterion met

Tell me whether apparent Kd is at least 20 nM here: "AAUAAGCAGCUGCAAGGUGAUCCUGCAGAUACCAGCUAGGAAACUAGCCCUUGGCAGCUGCAACAUGAGGAUCACCCAUGUAAUA"
criterion met

Tell me whether apparent Kd is at least 20 nM here: "UACAUGAGGAUCACCCAUGUAUAGAGGGAUACCAGUGUCAGUGAGCACCCUUGGCAGCCCGCGAACAAUGGGUGCGCUAAAUAGU"
criterion met

Tell me whether apparent Kd is at least 20 nM here: "UCGCAUUGCUCAGAUACCAGACAUGAGGAUCACCCAUGUACCAAGGUAACCGAAAGGCAUGUCCCUUGGCAGCUGAGCAAUGCGU"
criterion not met
